- Tested on: 186277-243-T-J2-PDC complex spheroid viability
- Measurement notes: Anticancer human tumor 186277-243-T-J2-PDC patient-derived colon adenocarcinoma cell line growth inhibition [GQUAD]; active means viability on the fitted dose curve at most 10% of control; inactive means the rest
- Conditions: second compound 0.0316 µM; first compound 0.316 µM
Select the correct class. Options are label 1 for active, label 0 for inactive and nothing else.

INPUT: Fill in: this test's call for O=C(NO)c1cnc(N2CCN(S(=O)(=O)c3ccc4ccccc4c3)CC2)nc1 + Cc1cnc(CNC(=O)c2c(=O)c3ccc(N4CCCN(C)CC4)nc3n3c2sc2ccccc23)cn1 is ___
OUTPUT: label 1

INPUT: Fill in: this test's call for C=CCn1c(=O)c2cnc(Nc3ccc(N4CCN(C)CC4)cc3)nc2n1-c1cccc(C(C)(C)O)n1 + CN(C)c1ccc(Nc2c3ccc(NC(=O)CCN4CCCC4)cc3nc3cc(NC(=O)CCN4CCCC4)ccc23)cc1 is ___
OUTPUT: label 0

INPUT: Fill in: this test's call for C=CC(=O)N1CCN(c2nc(=O)n(-c3c(C)ccnc3C(C)C)c3nc(-c4c(O)cccc4F)c(F)cc23)C(C)C1 (stereo not drawn) + CN(C)c1ccc(Nc2c3ccc(NC(=O)CCN4CCCC4)cc3nc3cc(NC(=O)CCN4CCCC4)ccc23)cc1 is ___
OUTPUT: label 0

###

- Tested on: 186277-243-T-J2-PDC complex spheroid viability
- Measurement notes: Anticancer human tumor 186277-243-T-J2-PDC cell line growth inhibition [GQUAD];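 further: spheroids exposed to drugs for 7 days; 100% = DMSO vehicle control viability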
- Conditions: second compound 1 µM; first compound 1 µM; stronger effect = lower value
Value kind: viability, T/C (%)
Entry rule: numbers only, all in %.

INPUT: What measured viability, T/C goes with CC(C)n1c(=O)n(C)c2cnc3cc(F)c(-c4ccc(OCCCN5CCCCC5)nc4)cc3c21 + Cc1cnc(CNC(=O)c2c(=O)c3ccc(N4CCCN(C)CC4)nc3n3c2sc2ccccc23)cn1 ?
OUTPUT: 54.8

INPUT: What measured viability, T/C goes with C=CCn1c(=O)c2cnc(Nc3ccc(N4CCN(C)CC4)cc3)nc2n1-c1cccc(C(C)(C)O)n1 + Cc1cnc(CNC(=O)c2c(=O)c3ccc(N4CCCN(C)CC4)nc3n3c2sc2ccccc23)cn1 ?
OUTPUT: 24.4

INPUT: What measured viability, T/C goes with COc1ncnc(C2CC2)c1-c1ncc2cnn(Cc3ccc(-c4nc(C(F)(F)F)cn4C(C)C)cc3)c2n1 + Cc1cnc(CNC(=O)c2c(=O)c3ccc(N4CCCN(C)CC4)nc3n3c2sc2ccccc23)cn1 ?
OUTPUT: 36.1

INPUT: What measured viability, T/C goes with O=c1[nH]cc(F)c(=O)[nH]1 + Cc1cnc(CNC(=O)c2c(=O)c3ccc(N4CCCN(C)CC4)nc3n3c2sc2ccccc23)cn1 ?
OUTPUT: 56.6

INPUT: What measured viability, T/C goes with C#Cc1c(F)ccc2cc(O)cc(-c3ncc4c(N5CC6CCC(C5)N6)nc(OCC56CCCN5CC(F)C6)nc4c3F)c12 (stereo not given) + Cc1cnc(CNC(=O)c2c(=O)c3ccc(N4CCCN(C)CC4)nc3n3c2sc2ccccc23)cn1 ?
OUTPUT: 5.02

INPUT: What measured viability, T/C goes with CC(=O)O[C@H]1C(=O)[C@@]2(C)[C@H]([C@H](OC(=O)c3ccccc3)[C@]3(O)C[C@H](OC(=O)[C@H](O)[C@@H](NC(=O)c4ccccc4)c4ccccc4)C(C)=C1C3(C)C)[C@]1(OC(C)=O)CO[C@@H]1C[C@@H]2O + Cc1cnc(CNC(=O)c2c(=O)c3ccc(N4CCCN(C)CC4)nc3n3c2sc2ccccc23)cn1 ?
OUTPUT: 25.1

INPUT: What measured viability, T/C goes with CC1COCCN1c1cc(C2(O)CC3CCC(C2)O3)c2cnn(-c3ccn[nH]3)c2n1 (stereo not given) + CN(C)c1ccc(Nc2c3ccc(NC(=O)CCN4CCCC4)cc3nc3cc(NC(=O)CCN4CCCC4)ccc23)cc1 ?
OUTPUT: 4.14

INPUT: What measured viability, T/C goes with COc1cccc2c1C(=O)c1c(O)c3c(c(O)c1C2=O)CC(O)(C(=O)CO)CC3OC1CC(N)C(O)C(C)O1 (stereo not given) + Cc1[nH]c2ccc(F)cc2c1-c1nc2c3cccnc3c3ncccc3c2[nH]1 ?
OUTPUT: 32

INPUT: What measured viability, T/C goes with C=CCn1c(=O)c2cnc(Nc3ccc(N4CCN(C)CC4)cc3)nc2n1-c1cccc(C(C)(C)O)n1 + CN(C)c1ccc(Nc2c3ccc(NC(=O)CCN4CCCC4)cc3nc3cc(NC(=O)CCN4CCCC4)ccc23)cc1 ?
OUTPUT: 9.53

INPUT: What measured viability, T/C goes with COc1ncnc(C2CC2)c1-c1ncc2cnn(Cc3ccc(-c4nc(C(F)(F)F)cn4C(C)C)cc3)c2n1 + CN(C)c1ccc(Nc2c3ccc(NC(=O)CCN4CCCC4)cc3nc3cc(NC(=O)CCN4CCCC4)ccc23)cc1 ?
OUTPUT: 107

INPUT: What measured viability, T/C goes with CC(C)n1c(=O)n(C)c2cnc3cc(F)c(-c4ccc(OCCCN5CCCCC5)nc4)cc3c21 + CN(C)c1ccc(Nc2c3ccc(NC(=O)CCN4CCCC4)cc3nc3cc(NC(=O)CCN4CCCC4)ccc23)cc1 ?
OUTPUT: 100

INPUT: What measured viability, T/C goes with O=C(c1cc(Cc2n[nH]c(=O)c3ccccc23)ccc1F)N1CCN(C(=O)C2CC2)CC1 + Cc1[nH]c2ccc(F)cc2c1-c1nc2c3cccnc3c3ncccc3c2[nH]1 ?
OUTPUT: 86

INPUT: What measured viability, T/C goes with CC1COCCN1c1cc(C2(O)CC3CCC(C2)O3)c2cnn(-c3ccn[nH]3)c2n1 (stereo not given) + Cc1cnc(CNC(=O)c2c(=O)c3ccc(N4CCCN(C)CC4)nc3n3c2sc2ccccc23)cn1 ?
OUTPUT: 8.79

INPUT: What measured viability, T/C goes with CC1COCCN1c1cc(-c2ccnn2C)c2ccnc(-c3ccn[nH]3)c2n1 (stereo not given) + Cc1cnc(CNC(=O)c2c(=O)c3ccc(N4CCCN(C)CC4)nc3n3c2sc2ccccc23)cn1 ?
OUTPUT: 17.1

INPUT: What measured viability, T/C goes with Cc1cccc(N(C)C(=O)C2C(O)CCN2c2nc(C)cc(C(F)(F)F)c2C#N)c1 (stereo not given) + CN(C)c1ccc(Nc2c3ccc(NC(=O)CCN4CCCC4)cc3nc3cc(NC(=O)CCN4CCCC4)ccc23)cc1 ?
OUTPUT: 101

INPUT: What measured viability, T/C goes with C=CCn1c(=O)c2cnc(Nc3ccc(N4CCN(C)CC4)cc3)nc2n1-c1cccc(C(C)(C)O)n1 + Cc1[nH]c2ccc(F)cc2c1-c1nc2c3cccnc3c3ncccc3c2[nH]1 ?
OUTPUT: 8.91

INPUT: What measured viability, T/C goes with COc1cc(C2c3cc4c(cc3C(OC3OC5COC(C)OC5C(O)C3O)C3COC(=O)C23)OCO4)cc(OC)c1O (stereo not given) + Cc1[nH]c2ccc(F)cc2c1-c1nc2c3cccnc3c3ncccc3c2[nH]1 ?
OUTPUT: 66.9

INPUT: What measured viability, T/C goes with COc1ccc([C@@H](O)c2cc(-c3ncnc4cc(N5CCOCC5)ccc34)c(F)cc2Cl)nn1 + Cc1cnc(CNC(=O)c2c(=O)c3ccc(N4CCCN(C)CC4)nc3n3c2sc2ccccc23)cn1 ?
OUTPUT: 34.9

INPUT: What measured viability, T/C goes with C=CC(=O)N1CCN(c2nc(=O)n(-c3c(C)ccnc3C(C)C)c3nc(-c4c(O)cccc4F)c(F)cc23)C(C)C1 (stereo not given) + Cc1[nH]c2ccc(F)cc2c1-c1nc2c3cccnc3c3ncccc3c2[nH]1 ?
OUTPUT: 87.6

INPUT: What measured viability, T/C goes with COc1cc(C2c3cc4c(cc3C(OC3OC5COC(C)OC5C(O)C3O)C3COC(=O)C23)OCO4)cc(OC)c1O (stereo not given) + CN(C)c1ccc(Nc2c3ccc(NC(=O)CCN4CCCC4)cc3nc3cc(NC(=O)CCN4CCCC4)ccc23)cc1 ?
OUTPUT: 42.9
